Source of measurements: patent US8461328B2

study system: JAK3 (Homo sapiens, UniProt P52333)
Construct: made in house; host or cells: SF9 insect cells (baculovirus)
Sequence (P52333 783-1124): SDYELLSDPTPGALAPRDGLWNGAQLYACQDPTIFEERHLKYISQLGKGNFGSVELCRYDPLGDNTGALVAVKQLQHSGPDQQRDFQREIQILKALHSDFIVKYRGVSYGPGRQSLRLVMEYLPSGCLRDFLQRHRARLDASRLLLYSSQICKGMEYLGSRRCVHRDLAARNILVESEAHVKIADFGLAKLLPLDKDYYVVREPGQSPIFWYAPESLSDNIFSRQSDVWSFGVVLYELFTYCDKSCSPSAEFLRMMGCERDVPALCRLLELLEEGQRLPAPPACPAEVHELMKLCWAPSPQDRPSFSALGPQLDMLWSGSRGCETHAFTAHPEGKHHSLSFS
assay remarks: JAK3 inhibition (Table 4)
Format: biochemical
study conditions: read-out: JAK3 Ki
Quick reference: pKi of the listed items.
Scale: negative log10 of molar concentration, which is what pKi denotes.

| compound | study system | pKi |
| --- | --- | --- |
| COC1CN(C)CCC1n1c(C)nc2cnc3[nH]ccc3c21 (racemic) [Example 534] | JAK3 (Homo sapiens, UniProt P52333) | 7.05 |
| O=C(Cc1nc2cnc3[nH]ccc3c2n1C1CCNCC1)N1CC(F)(F)C1 [Example 269] | JAK3 (Homo sapiens, UniProt P52333) | 6.61 |

Supply recorded pKi for CC1CN(Cc2cncnc2)CCC1n1cnc2cnc3[nH]ccc3c21 (racemic) [Example 343] here. 8.49

Supply recorded pKi for CN(CC(F)F)C(=O)NC1CCC(n2cnc3cnc4[nH]ccc4c32)CC1 (stereo not drawn) [Example 747] here. 7.28

Supply recorded pKi for CC(C)(O)Cc1nc2cnc3[nH]ccc3c2n1C1CCN(CCC#N)CC1 [Example 346] here. 7.29

Supply recorded pKi for CC(CC#N)N1CCC(n2c(CCn3cncn3)nc3cnc4[nH]ccc4c32)CC1 (racemic) [Example 394] here. 6.82

Supply recorded pKi for COC(=O)CC(c1cccnc1)N1CCC(n2cnc3cnc4[nH]ccc4c32)CC1 (racemic) [Example 126] here. 6.38

Supply recorded pKi for CNc1nc2cnc3[nH]ccc3c2n1C1CCN(CC(F)(F)F)CC1 [Example 658] here. 7.47
